Tested on: MCF7
Assay: Cytotoxicity against human MCF7 cells assessed as reduction in cell viability after 48 hrs by MTT assay
Type: functional, cell-based
Conditions: MCF7, 48 h
assay_readout: pIC50
FYI, pIC50 means -log10 of a concentration in mol per litre.

Known results for molecules:
sample_smiles	assay_readout	assay_result
CC1(C)C[C@@H](O)[C@]2(C)CC[C@]3(C)C(=CC[C@@H]4[C@@]5(C)CC[C@H](O)[C@](C)(CO)[C@@H]5CC[C@]43C)[C@@H]2C1	pIC50	5.63
CC(C)(O)[C@@H]1CC[C@](C)([C@H]2[C@@H](O)C[C@@]3(C)[C@@H]4C[C@H](O)[C@H]5C(C)(C)[C@@H](O)CC[C@@]56C[C@@]46CC[C@]23C)O1	pIC50	5.75
CC(C)(O)[C@@H]1CC[C@](C)([C@H]2[C@@H](O)C[C@@]3(C)[C@@H]4C[C@H](O)[C@H]5C(C)(C)[C@@H](O[C@@H]6OC[C@@H](O)[C@H](O)[C@H]6O)CC[C@@]56C[C@@]46CC[C@]23C)O1	pIC50	4.51
C[C@@H]1C[C@H]([C@H](O)C(C)(C)O)O[C@H]2O[C@H](O)[C@@]3(C)[C@@H]4CC[C@H]5C(C)(C)[C@@H](O)CC[C@@]56C[C@@]46CC[C@]3(C)[C@H]21	pIC50	4.23
C[C@@H]1C[C@H]([C@H](O)C(C)(C)O)O[C@H]2O[C@H](O)[C@@]3(C)[C@@H]4CC[C@H]5C(C)(C)C(=O)CC[C@@]56C[C@@]46CC[C@]3(C)[C@H]21	pIC50	4.41

# next molecule below
molecule CC1(C)C[C@@H](O)[C@]2(C)CC[C@]3(C)C(=CC[C@@H]4[C@@]5(C)CCC(=O)[C@](C)(CO)[C@@H]5CC[C@]43C)[C@@H]2C1 , pIC50 observed: 4.54
